Items are presented alongside their recorded log10(solubility kinetic).
# experimental_parameters: buffer; pH 7.4; 200.0 µM
Scale: decimal log of solubility kinetic, solubility kinetic in µg/mL.

Sample records with log10(solubility kinetic):
>  <compound>
CC1Cc2ccccc2N1C(=S)NC1CCCC1 (stereo not given)

>  <val>
1.14

$$$$
>  <compound>
COc1ccc2c(c1)c1ncn(Cc3ccccn3)c(=O)c1n2C

>  <val>
1.13

$$$$
>  <compound>
Cc1cccc(C)c1NC(=O)C1CC2CCC1C2 (stereo not given)

>  <val>
1.10

$$$$
>  <compound>
O=C(Nc1ccc(NC(=O)c2ccco2)nc1)c1cccc(F)c1

>  <val>
0.28

$$$$
>  <compound>
c1ccc(NCc2ccccn2)cc1

>  <val>
1.39

$$$$
>  <compound>
Cc1cc(C)nc(NC(=O)c2ccc(C)c(C)c2)n1

>  <val>
1.55

$$$$
>  <compound>
CC1CC(=O)Nc2ccccc2N1S(=O)(=O)c1ccc(F)cc1F (stereo not given)

>  <val>
1.19

$$$$
>  <compound>
CC(=O)c1c(C)[nH]c(C(=O)Nc2cccc(C(F)(F)F)c2)c1C

>  <val>
0.30

$$$$

## Input Can you share its log10(solubility kinetic)? I mean this compound: Cc1ccc(OCC(=O)Nc2ccc(Cl)cc2)c([N+](=O)[O-])n1
## Output 0.94

## Input Same for O=C1SC(Cc2ccccc2)C(=O)N1c1ccccc1 (stereo not given)
## Output 0.79

## Input Same for COc1ccc(S(=O)(=O)Nc2ncccc2C)c2ccccc12
## Output 1.58

## Input Same for CN(Cc1ccccc1F)C(=O)c1ccc(Oc2ccccc2)cc1
## Output 0.62

## Input Same for Cc1cc(-c2ccccc2C(=O)NC2CCCCC2)on1
## Output 1.50

## Input Same for CCN(CC)S(=O)(=O)c1ccc(N2CCc3ccccc3C2)nc1
## Output 1.41

## Input Same for COc1ccc(S(=O)(=O)N2CCOCC2)cc1NC(=O)COC(=O)c1[nH]c(C)c(C(C)=O)c1C
## Output 0.94

## Input Same for Oc1ccc(NCc2cccc(OCc3ccccc3)c2)cc1
## Output 1.58

## Input Same for CCOC(=O)C1CCN(S(=O)(=O)c2ccc(NC(C)=O)c(Cl)c2)CC1
## Output 0.86
